System: inhibitor-selected HIV-1 IIIb passages
Experiment: Phenotypic profile of selected HIV-1 passages
Format: cell-based
Settings: Human immunodeficiency virus 1, IIIB, selected virus DTG P9 (day 174, 72.9 nM)
Observation Type: pEC50
// scale note: pEC50 = -log10(conc_M); give the bare number

Would you please look over these solved cases?
Cc1nnc(C(=O)NC(C)(C)c2nc(C(=O)NCc3ccc(F)cc3)c(O)c(=O)n2C)o1 [RAL, raltegravir] ... 7.37
O=C(NCc1c(F)cc(F)cc1F)c1cn2c(c(O)c1=O)C(=O)N1[C@H]3CC[C@H](C3)O[C@@H]1C2 [BIC, Bictegravir] ... 7.62
C[C@@H]1CCO[C@H]2Cn3cc(C(=O)NCc4ccc(F)cc4F)c(=O)c(O)c3C(=O)N12 [DTG, Dolutegravir] ... 7.81
COc1cc2c(cc1Cc1cccc(Cl)c1F)c(=O)c(C(=O)O)cn2[C@H](CO)C(C)C [EVG, elvitegravir] ... 7.60

Req: Please report the recorded pEC50 for O=C1Nc2ccc(Cl)cc2[C@@](C#CC2CC2)(C(F)(F)F)O1 [EFV, efavirenz] .
Resp: 8.68

###

Test system: INSTI-resistant HIV-1 mutants (HXB2)
Assay: microbe, parasite or virus in culture
Assay type: cell-based
Settings: Human immunodeficiency virus 1, HXB2, IN mutant Y143R
// EC50 lookup, one value per entry

Would you please look over these solved cases?
O=C1Nc2ccc(Cl)cc2[C@@](C#CC2CC2)(C(F)(F)F)O1 ... 1.7 nM
O=C(NCc1c(F)cc(F)cc1F)c1cn2c(c(O)c1=O)C(=O)N1[C@H]3CC[C@H](C3)O[C@@H]1C2 ... 1.8 nM
Cc1nnc(C(=O)NC(C)(C)c2nc(C(=O)NCc3ccc(F)cc3)c(O)c(=O)n2C)o1 ... 418 nM

Req: Please report the recorded EC50 for C[C@@H]1CCO[C@H]2Cn3cc(C(=O)NCc4ccc(F)cc4F)c(=O)c(O)c3C(=O)N12 .
Resp: 1.9 nM

###

Test system: inhibitor-selected HIV-1 IIIb passages
Assay: Phenotypic profile of selected HIV-1 passages
Type: cell-based
Details: Human immunodeficiency virus 1, IIIB, selected virus EVG P6 (day 56, 115 nM)
Observation Type: EC50 (nM)
The answer is to be given in nM; state only the numeric part.

Would you please look over these solved cases?
C[C@@H]1CCO[C@H]2Cn3cc(C(=O)NCc4ccc(F)cc4F)c(=O)c(O)c3C(=O)N12 [DTG, Dolutegravir] ... 7.1
O=C(NCc1c(F)cc(F)cc1F)c1cn2c(c(O)c1=O)C(=O)N1[C@H]3CC[C@H](C3)O[C@@H]1C2 [BIC, Bictegravir] ... 6.8
COc1cc2c(cc1Cc1cccc(Cl)c1F)c(=O)c(C(=O)O)cn2[C@H](CO)C(C)C [EVG, elvitegravir] ... 48.9

// switching to the query compound
Req: Please report the recorded EC50 for O=C1Nc2ccc(Cl)cc2[C@@](C#CC2CC2)(C(F)(F)F)O1 [EFV, efavirenz] .
Resp: 2.4
